Values compiled from the supplement of paper PMC13380429.

Assign drug-induced phospholipidosis to each entry below.
system: A549-ACE2; assay: drug-induced phospholipidosis relative to tamoxifen; higher = more phospholipidosis; conditions: 3.33333 µM; 48 h
Give a bare numeral; the unit % is implied.

# input Quick one: drug-induced phospholipidosis of c1cncc(CN2CCC(n3ncc4c(N5CCOCC5)nc(-c5ccc6[nH]ccc6c5)nc43)CC2)c1 [WAY-600] ?
# output 86.2

# input Quick one: drug-induced phospholipidosis of Nc1nc(O)c2[nH]nnc2n1 [azaguanine-8] ?
# output -4.45

# input Quick one: drug-induced phospholipidosis of CC/C(=C(/c1ccc(OCCN(C)C)cc1)c1cccc(O)c1)c1ccccc1 [droloxifene] ?
# output 50.9

# input Quick one: drug-induced phospholipidosis of NS(=O)(=O)C#Cc1ccccc1 [pifithrin-mu] ?
# output 0.23
